Compiled notes: published pIC50 values involving SYK kinase (Homo sapiens, UniProt P43405).
pIC50: −log10 of the molar value.

Before answering, review these 5 worked examples.
[[record]]
chemical_structure = "CN(C)C(=O)Cn1cc(Nc2nc(C3CCC3)nc3cn[nH]c23)cn1"
recorded_endpoint = "pIC50"
endpoint_value = "6.00 to 7.00"

[[record]]
chemical_structure = "COc1ccc2nc(Nc3ccc(CN4CCC(N5CCN(C)CC5)CC4)cc3)c3n[nH]cc3c2c1"
recorded_endpoint = "pIC50"
endpoint_value = "6.00 to 7.00"

[[record]]
chemical_structure = "c1nn(C2CC2)cc1Nc1nc(C2CCC2)nc2cn[nH]c12"
recorded_endpoint = "pIC50"
endpoint_value = "7.00 to 8.00"

[[record]]
chemical_structure = "Cc1nn(C2CCOCC2)cc1Nc1nc(-c2ccoc2)nc2cn[nH]c12"
recorded_endpoint = "pIC50"
endpoint_value = "6.00 to 7.00"

[[record]]
chemical_structure = "Cc1cc(Nc2nccc(Oc3ccc(NC(=O)Nc4cc(C(C)(C)C)nn4-c4cccc(CP(C)(C)=O)c4)c4ccccc34)n2)cc2cn[nH]c12"
recorded_endpoint = "pIC50"
endpoint_value = 8.30


State the recorded pIC50 for every item in the following list.
1. Cn1cc(-c2cncc3nc(Nc4ccc(N5CCOCC5)cc4)nn23)cn1
2. O=C(c1ccc(Nc2nc(C3CC3)nc3cn[nH]c23)cc1F)N1CCOCC1
3. CS(=O)(=O)N1CCO[C@H](COc2nc(-c3ccc(N4CCOCC4)cc3)cc3nccnc23)C1
4. COc1cc2nccc(Oc3ccc(NC(=O)c4ccn(-c5ccc(F)cc5)n4)c(F)c3)c2cc1OC
5. CC(=O)N1CCO[C@H](COc2nc(-c3ccc(C4(C#N)CC4)cc3)cc3nccnc23)C1
6. CC(C)n1cc(Nc2nc(-c3cnn(C)c3)nc3cn[nH]c23)cn1
7. Clc1cccc(COc2cccc(Nc3nccc(-c4nccs4)n3)c2)c1Cl
8. COc1cc(-c2cc3nccc(-c4ccc5[nH]c(-c6cn[nH]c6)nc5c4)c3o2)cc(OC)c1OC

a:
1: > 6.00; 2: 6.00 to 7.00; 3: 7.62; 4: 5.00 to 6.00; 5: 6.95; 6: 7.00 to 8.00; 7: < 5.70; 8: > 6.52

Give pIC50 for each of the items listed below.
1. Cc1nn(C)c2sc(-c3nc(N[C@@H]4CCCC[C@@H]4N)c(F)c4c3C(=O)NC4)cc12
2. CC(C)(C)c1cc(NC(=O)Nc2ccc(OCc3ccnc(Nc4cncc(C5CC5)n4)c3)c3ccccc23)n(-c2ccc(CO)cc2)n1
3. CN(C)CCS(=O)(=O)N1CCO[C@H](COc2nc(-c3ccc(N4CCOCC4)cc3)cc3nccnc23)C1
4. FC(F)(F)Cn1cc(Nc2nc(-c3ccc4cn[nH]c4c3)nc3cn[nH]c23)cn1

a:
1: 9.90; 2: 5.65; 3: 7.28; 4: 7.00 to 8.00

Take each entry in turn and give its pIC50.
1. Cn1c(=O)c(Nc2ccc(N3CCOCC3)cn2)cc2cc(-c3cc[nH]n3)ccc21
2. CN1CCC(n2cc(Nc3nc(-c4cccs4)nc4cn[nH]c34)cn2)CC1

a:
1. 6.69
2. > 8.00

The recorded pIC50 for COc1cccc2nc(Nc3cnn(CCO)c3)c3[nH]ncc3c12 is 6.00 to 7.00
